test system: Yap1 mRNA; assay: Antisense inhibition of human Yap1 in A-431 cells by cEt gapmers, single dose (Example 2, RTS4814); format: cell-based; details: Table 32; Yap1 mRNA, percent of untreated control; 3-10-3 cEt gapmers targeting SEQ ID NO.: 1, and 2
Strand notation (5' to 3'): a small letter for the sugar, then the base; units joined by * are phosphorothioate-linked, units joined directly phosphodiester-linked; [ ] holds rarer units or linkages, { } end groups; capitals alone tell only the bases. k = constrained ethyl (cEt); [5mC] = 5-methylcytosine; d = 2'-deoxy (DNA)
Kindly supply the reported YAP1 (% UTC) values for the records listed here.
Numbers only, in % UTC.

                                  substance  units_of_measure  numeric_readout
0  1076050 (k[5mC]*kT*kT*dT*dA*dG*dA*dT*dT*dA*dA*dA*dG*kG*k[5mC]*kT; antisense) [compound 1076050]             % UTC               45

Please look at the items below and tell me YAP1 (% UTC) for each one, in order.
1. 1076274 (kT*kG*kA*dG*dA*dA*dT*dA*dG*dA*dG*d[5mC]*dA*kG*kG*kT; antisense) [compound 1076274]
2. 1074898 (antisense kA*kA*k[5mC]*dT*dT*dT*dT*dG*dG*dG*d[5mC]*dA*dA*kA*kG*kT) [compound 1074898]
3. 1075794 (k[5mC]*kA*kT*dA*dA*dT*dG*dA*dA*dT*dG*dT*dG*kG*kG*kT; antisense) [compound 1075794]
4. 1074290 (antisense k[5mC]*kT*kG*dA*d[5mC]*dT*dG*dA*dT*dT*d[5mC]*dT*d[5mC]*kT*kG*kG) [compound 1074290]

Completion:
[9, 101, 38, 5]

* * *

tested on: Yap1 mRNA; experiment: Antisense inhibition of human Yap1 in A-431 cells by cEt gapmers, single dose (Example 1, RTS4814); format: cell-based; details: A-431 cells, 5,000 cells per well, free uptake, 2,000 nM modified oligonucleotide, approx. 48 hours, RTS4814, normalized to RIBOGREEN; Table 3
Strand notation (5' to 3'): a small letter for the sugar, then the base; units joined by * are phosphorothioate-linked, units joined directly phosphodiester-linked; [ ] holds rarer units or linkages, { } end groups; capitals alone tell only the bases. k = constrained ethyl (cEt); [5mC] = 5-methylcytosine; d = 2'-deoxy (DNA)
measurement_name: YAP1 (% UTC)
Give bare numbers, in % UTC.

>>> print(df.to_string())
                                  substance  numeric_readout
0  715573 (kT*kA*kT*dA*dT*dA*dT*dG*dG*dT*dA*dG*dT*k[5mC]*kT*kA; antisense) [Compound 715573]               76
1  715576 (kA*kA*k[5mC]*d[5mC]*dT*dT*dT*dA*d[5mC]*d[5mC]*dA*dA*dA*kA*k[5mC]*kG; antisense) [Compound 715576]               80
2  715609 (antisense kT*kG*kT*dG*dT*dA*dG*dG*d[5mC]*dT*dG*dA*d[5mC]*kT*kT*kA) [Compound 715609]               56

Give YAP1 (% UTC) for each of the items listed below.
1. 715474 (antisense k[5mC]*kT*kT*dT*d[5mC]*dT*dT*dT*dA*dT*d[5mC]*dT*dA*kG*k[5mC]*kT) [Compound 715474]
2. 715627 (antisense k[5mC]*kT*kA*d[5mC]*d[5mC]*dT*dG*dA*d[5mC]*dA*dT*dT*dT*kT*kG*kG) [Compound 715627]
3. 715570 (kG*k[5mC]*k[5mC]*dA*dA*dA*dG*dG*dT*dA*dG*dG*dA*kT*kA*kA; antisense) [Compound 715570]
4. 715489 (antisense kA*kA*k[5mC]*dT*dA*dT*dT*dA*d[5mC]*dT*dT*d[5mC]*dA*kT*kA*kG) [Compound 715489]
5. 715411 (kG*k[5mC]*kA*dT*d[5mC]*dA*dG*dT*dA*d[5mC]*dT*dG*dG*k[5mC]*k[5mC]*kT; antisense) [Compound 715411]

Completion:
1. 78
2. 88
3. 79
4. 90
5. 94

Fill in YAP1 (% UTC) for each of the 2 substances listed.
1. 715504 (antisense kT*kG*kG*dT*dT*dT*dA*dT*dT*dG*dT*dA*dA*kA*kA*kG) [Compound 715504]
2. 715600 (antisense kA*kA*kT*dT*d[5mC]*d[5mC]*d[5mC]*dA*dA*dG*d[5mC]*dT*dA*k[5mC]*k[5mC]*k[5mC]) [Compound 715600]

Completion:
1. 70
2. 82

Please report YAP1 (% UTC) for every entry that follows.
1. 715525 (kT*kT*kA*d[5mC]*dT*dT*dT*dA*dA*dG*dA*dA*dG*kT*kA*kT; antisense) [Compound 715525]
2. 715468 (antisense kG*k[5mC]*kT*dT*dG*dG*dT*dG*dG*d[5mC]*dA*dG*d[5mC]*k[5mC]*kA*kA) [Compound 715468]
3. 715564 (k[5mC]*kA*kA*dG*d[5mC]*dA*d[5mC]*dA*d[5mC]*dA*dA*d[5mC]*dT*k[5mC]*kA*kG; antisense) [Compound 715564]

Completion:
1: 100; 2: 90; 3: 75

* * *

test system: Yap1 mRNA; experiment: Antisense inhibition of human Yap1 in A-431 cells by cEt gapmers, single dose (Example 3, RTS36584); type: cell-based; conditions: Table 8; A-431 cells, 5,000 cells per well, free uptake, 2,000 nM, approximately 48 hours; RTS36584; normalized to RIBOGREEN; Yap1 mRNA relative to untreated control cells
Strand notation (5' to 3'): a small letter for the sugar, then the base; units joined by * are phosphorothioate-linked, units joined directly phosphodiester-linked; [ ] holds rarer units or linkages, { } end groups; capitals alone tell only the bases. k = constrained ethyl (cEt); [5mC] = 5-methylcytosine; d = 2'-deoxy (DNA)
measurement_name: YAP1 (% UTC)
One number for each entry, in % UTC.

Below, 8 substances whose answers are already recorded.
                                  substance  measurement_name  units_of_measure  numeric_readout
0  958409 (antisense kT*kT*kA*d[5mC]*d[5mC]*dA*dA*dA*dA*d[5mC]*dG*dA*dG*kG*kG*kT) [Compound 958409]      YAP1 (% UTC)             % UTC               99
1  715491 (antisense kA*kA*k[5mC]*d[5mC]*dA*dA*d[5mC]*dT*dA*dT*dT*dA*d[5mC]*kT*kT*k[5mC]) [Compound 715491]      YAP1 (% UTC)             % UTC                8
2  958421 (antisense k[5mC]*kT*k[5mC]*d[5mC]*dG*dT*dG*dG*dT*dG*dA*dT*d[5mC]*k[5mC]*k[5mC]*kA) [Compound 958421]      YAP1 (% UTC)             % UTC               13
3  958387 (antisense kG*kA*kG*dG*d[5mC]*dG*d[5mC]*dG*d[5mC]*dG*d[5mC]*dA*dT*kT*kG*kT) [Compound 958387]      YAP1 (% UTC)             % UTC              131
4  958383 (antisense k[5mC]*kT*kT*d[5mC]*d[5mC]*dT*d[5mC]*dT*dG*d[5mC]*dG*d[5mC]*dG*k[5mC]*k[5mC]*k[5mC]) [Compound 958383]      YAP1 (% UTC)             % UTC               96
5  958413 (antisense k[5mC]*kT*kA*dG*dT*dA*dA*dT*d[5mC]*dT*dT*dA*d[5mC]*kT*kG*kG) [Compound 958413]      YAP1 (% UTC)             % UTC               80
6  958370 (antisense k[5mC]*kT*kT*dT*dA*dT*d[5mC]*dT*dA*dG*d[5mC]*dT*dT*kG*kG*kT) [Compound 958370]      YAP1 (% UTC)             % UTC                7
7  958382 (antisense kT*kT*k[5mC]*d[5mC]*dT*d[5mC]*dT*dG*d[5mC]*dG*d[5mC]*dG*d[5mC]*k[5mC]*k[5mC]*kG) [Compound 958382]      YAP1 (% UTC)             % UTC              111

State recorded YAP1 (% UTC) for all listed substances.
1. 958381 (antisense kT*k[5mC]*k[5mC]*dT*d[5mC]*dT*dG*d[5mC]*dG*d[5mC]*dG*d[5mC]*d[5mC]*k[5mC]*kG*k[5mC]) [Compound 958381]
2. 958376 (antisense k[5mC]*kT*kG*dG*dG*dA*dT*dT*dG*dA*dT*dA*dT*kT*k[5mC]*k[5mC]) [Compound 958376]
3. 958355 (antisense k[5mC]*kG*kT*dT*dG*dG*d[5mC]*d[5mC]*dG*dT*d[5mC]*dT*dT*kG*kG*kG) [Compound 958355]
4. 958358 (antisense kG*kG*k[5mC]*dG*dG*d[5mC]*dT*dT*dG*dA*dA*dG*dA*kA*kG*kG) [Compound 958358]
5. 958395 (antisense k[5mC]*kT*kA*dA*d[5mC]*dA*dA*d[5mC]*d[5mC]*dT*dG*dG*dT*kT*kT*kG) [Compound 958395]
6. 958367 (antisense k[5mC]*kT*kA*dG*d[5mC]*dT*dT*dG*dG*dT*dG*dG*d[5mC]*kA*kG*k[5mC]) [Compound 958367]
7. 958418 (antisense kA*kG*kA*dG*d[5mC]*d[5mC]*dT*dA*d[5mC]*d[5mC]*dT*dG*dA*k[5mC]*kA*kT) [Compound 958418]

Completion:
[146, 31, 51, 34, 114, 105, 47]

I would be grateful if you could provide YAP1 (% UTC) for each of the following entries.
1. 958359 (antisense kT*kG*k[5mC]*dA*dT*d[5mC]*dA*dG*dT*dA*d[5mC]*dT*dG*kG*k[5mC]*k[5mC]) [Compound 958359]
2. 958410 (antisense kT*kT*kT*dA*d[5mC]*d[5mC]*dA*dA*dA*dA*d[5mC]*dG*dA*kG*kG*kG) [Compound 958410]
3. 958399 (antisense kG*kA*k[5mC]*d[5mC]*dA*dA*d[5mC]*dT*dA*d[5mC]*dT*dT*dG*kA*kA*kG) [Compound 958399]
4. 958419 (antisense kT*kA*kA*dG*dA*dG*d[5mC]*d[5mC]*dT*dA*d[5mC]*d[5mC]*dT*kG*kA*k[5mC]) [Compound 958419]
5. 958417 (antisense kA*k[5mC]*kG*dG*dA*dT*dA*dA*dA*dA*dA*dT*dT*kA*k[5mC]*kT) [Compound 958417]

Completion:
117
70
45
68
85

Prompt: Which YAP1 (% UTC) is listed for 958371 (antisense kA*k[5mC]*k[5mC]*dA*dA*d[5mC]*dT*dA*dT*dT*dA*d[5mC]*dT*kT*k[5mC]*kA) [Compound 958371] ?
Completion: 2
